Biological target: GPR119 (Homo sapiens)
Construct: host or cells: CHO-K1 (GPR119 CRE-bla, doxycycline-induced)
Sequence (Q8TDV5 1-335): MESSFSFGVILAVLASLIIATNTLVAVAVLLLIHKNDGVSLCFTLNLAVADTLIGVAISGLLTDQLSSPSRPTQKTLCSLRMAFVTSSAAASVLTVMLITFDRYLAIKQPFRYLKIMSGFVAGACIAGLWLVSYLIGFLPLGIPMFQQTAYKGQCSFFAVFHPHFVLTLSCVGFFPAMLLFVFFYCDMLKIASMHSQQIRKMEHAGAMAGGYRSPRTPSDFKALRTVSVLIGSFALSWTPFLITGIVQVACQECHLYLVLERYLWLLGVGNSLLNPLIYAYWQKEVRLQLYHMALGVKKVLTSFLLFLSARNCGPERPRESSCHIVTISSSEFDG
Assay: cAMP Accumulation Assay (GPR119 CRE-bla CHO-K1 cells, LiveBLAzer-FRET B/G)
Type: cell-based
Settings: maximum activity, response ratio versus non-treated control group
Lab note: anything with Emax (Fold) at or over 3 Fold counts as met; the rest go in not met.

Observe how each entry below is paired with its result.
smiles.text | class
CCCn1ncn(-c2ccc(-c3cnc(N4CCN(c5noc(C(C)C)n5)CC4)c(C#N)c3)cc2F)c1=O.Cl | met
CCCn1ncn(-c2ccc(-c3cnc(N4CCN(C(=O)OC(C)(C)C)C[C@@H]4C)c(C#N)c3)cc2F)c1=O | not met
CCc1cnc(N2CCN(c3ncc(-c4cc(F)c(-n5cnn(C)c5=O)cc4F)cc3C#N)[C@@H](C)C2)nc1 | met
CC(C)c1nc(C2CCN(c3ncc(-c4ccc(-n5cnn(CN6CCCC6)c5=O)c(F)c4)cc3C#N)CC2)no1 | met
COCCn1ncn(-c2ccc(-c3cnc(N4CCC(c5nnc(C(F)(F)F)o5)CC4)c(C#N)c3)cc2F)c1=O | not met
CCc1cnc(N2CCN(c3ncc(-c4ccc(-n5cnn(C)c5=O)c(F)c4)cc3C#N)[C@@H](C)C2)nc1 | not met

Request: Check this molecule for Emax (Fold) at or above 3 Fold: `C[C@H]1CN(c2ccc(C(F)(F)F)cn2)CCN1c1ncc(-c2ccc(-n3cnn(C)c3=O)c(F)c2)cn1`
Result: not met
